- TGT: T1, IL-2Rαβγ triple receptor (UniProt P01589 22-272; P14784 27-551; P31785 23-369)
- T1 sequence (looked up) 1: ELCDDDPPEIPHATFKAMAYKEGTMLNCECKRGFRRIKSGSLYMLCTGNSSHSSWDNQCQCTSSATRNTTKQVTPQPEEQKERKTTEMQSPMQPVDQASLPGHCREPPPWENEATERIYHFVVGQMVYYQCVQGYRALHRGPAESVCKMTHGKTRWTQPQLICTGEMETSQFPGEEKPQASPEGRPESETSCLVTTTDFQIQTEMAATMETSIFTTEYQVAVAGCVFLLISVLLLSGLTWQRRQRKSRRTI
- T1 sequence (looked up) 2: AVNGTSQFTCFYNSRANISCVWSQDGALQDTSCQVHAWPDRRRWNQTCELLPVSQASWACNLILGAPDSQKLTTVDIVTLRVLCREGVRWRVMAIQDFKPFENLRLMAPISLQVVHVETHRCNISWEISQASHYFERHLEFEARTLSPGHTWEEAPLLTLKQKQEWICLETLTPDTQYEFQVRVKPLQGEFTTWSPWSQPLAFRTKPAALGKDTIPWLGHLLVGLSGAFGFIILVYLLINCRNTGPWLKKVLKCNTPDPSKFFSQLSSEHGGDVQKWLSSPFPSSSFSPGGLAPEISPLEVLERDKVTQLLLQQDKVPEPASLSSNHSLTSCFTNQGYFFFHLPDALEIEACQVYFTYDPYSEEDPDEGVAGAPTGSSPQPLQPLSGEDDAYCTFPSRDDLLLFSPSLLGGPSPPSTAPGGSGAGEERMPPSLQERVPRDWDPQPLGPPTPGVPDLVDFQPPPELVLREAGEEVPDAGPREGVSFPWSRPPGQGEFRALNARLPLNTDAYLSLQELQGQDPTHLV
- T1 sequence (looked up) 3: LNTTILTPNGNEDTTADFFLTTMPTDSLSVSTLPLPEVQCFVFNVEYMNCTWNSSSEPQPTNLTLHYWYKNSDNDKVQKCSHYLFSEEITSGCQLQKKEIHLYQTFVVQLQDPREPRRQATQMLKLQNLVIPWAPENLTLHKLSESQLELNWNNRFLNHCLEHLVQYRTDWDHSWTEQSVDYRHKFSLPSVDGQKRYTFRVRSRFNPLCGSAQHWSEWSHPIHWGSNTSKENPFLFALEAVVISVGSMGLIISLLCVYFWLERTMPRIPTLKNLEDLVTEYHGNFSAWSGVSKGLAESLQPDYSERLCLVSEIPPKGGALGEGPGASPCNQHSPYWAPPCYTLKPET
- ASSAY METHOD TEXT: cell-based or functional assay
Numbered stars: 1 amine (or outer) side, 2 acyl side, 3 side chain; on linkers, the order of the positions; unused ones are H or OH. Square brackets hold non-standard residues; d marks the D form. Prk = N-ε-propargyloxycarbonyl-L-lysine, C#CCOC(=O)NCCCC[C@H](N[*:1])C(=O)[*:2]
Mark No for Activation of IL-2αβγ receptor EC50 (STAT5 luciferase reporter gene assay) values under 0.4 nM, and Yes for everything at or above.

>>> class_label("40k-1PEG-IL2-N88R-N33Prk (ligand) APTSSSTKKTQLQLEHLLLDLQMILNGINNYK[Prk](PEG‑azide 40 kDa)PKLTRMLTFKFYMPKKATELKHLQCLEEELKPLEEVLNLAQSKNFHLRPRDLISRINVIVLELKGSETTFMCEYADETATIVEFLNRWITFSQSIISTLT")
"Yes"
>>> class_label("40k-1PEG-IL2-N88R-N77Prk (ligand) APTSSSTKKTQLQLEHLLLDLQMILNGINNYKNPKLTRMLTFKFYMPKKATELKHLQCLEEELKPLEEVLNLAQSK[Prk](PEG‑azide 40 kDa)FHLRPRDLISRINVIVLELKGSETTFMCEYADETATIVEFLNRWITFSQSIISTLT")
"Yes"
>>> class_label("20k-1PEG-IL2-N88R-N33Prk (ligand) APTSSSTKKTQLQLEHLLLDLQMILNGINNYK[Prk](PEG‑azide 20 kDa)PKLTRMLTFKFYMPKKATELKHLQCLEEELKPLEEVLNLAQSKNFHLRPRDLISRINVIVLELKGSETTFMCEYADETATIVEFLNRWITFSQSIISTLT")
"No"
>>> class_label("60k-1PEG-IL2-N88R-N77Prk (ligand) APTSSSTKKTQLQLEHLLLDLQMILNGINNYKNPKLTRMLTFKFYMPKKATELKHLQCLEEELKPLEEVLNLAQSK[Prk](PEG 60 kDa)FHLRPRDLISRINVIVLELKGSETTFMCEYADETATIVEFLNRWITFSQSIISTLT")
"Yes"
>>> class_label("20k-1PEG-IL2-N88R-N77Prk (ligand) APTSSSTKKTQLQLEHLLLDLQMILNGINNYKNPKLTRMLTFKFYMPKKATELKHLQCLEEELKPLEEVLNLAQSK[Prk](PEG‑azide 20 kDa)FHLRPRDLISRINVIVLELKGSETTFMCEYADETATIVEFLNRWITFSQSIISTLT")
"No"
>>> class_label("60k-1PEG-IL2-N88R-N33Prk (ligand) APTSSSTKKTQLQLEHLLLDLQMILNGINNYK[Prk](PEG 60 kDa)PKLTRMLTFKFYMPKKATELKHLQCLEEELKPLEEVLNLAQSKNFHLRPRDLISRINVIVLELKGSETTFMCEYADETATIVEFLNRWITFSQSIISTLT")
"No"

Recorded values, source patent EP4631972A1.
